system: E34 (patient-derived glioblastoma stem cells of proneural subtype); experiment: phenotypic distance (Euclidean, principal components) from DMSO controls (arbitrary units); higher = stronger morphological change; conditions: 3000 nM; exposure time: 72 h;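 also: cell Painting imaging in 384-well plates, CellProfiler features reduced to at least 20 principal components, Euclidean distance versus same-plate DMSO vehicle wells (0.1% v/v), median over six images per well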
MEASUREMENT_LABEL: phenotypic distance
Number, no unit, nothing else.

Return reported phenotypic distance. Input molecule: COc1cc2c[n+](C)c3c4cc5c(cc4ccc3c2cc1OC)OCO5 [Nitidine chloride]
3.01

Now consider the entry below.
For the molecule O=C1CC[C@@H](C(=O)N2CSC[C@H]2C(=O)O)N1 [Pidotimod] , give its reported phenotypic distance.
0.949

---

Each record here notes measured phenotypic distance.
test system: FT3469 (normal neural stem cell line); assay: phenotypic distance (Euclidean, principal components) from DMSO controls (arbitrary units); higher = stronger morphological change; conditions: 3000 nM; exposure time: 72 h
Structures can show the parent of a compound that is named as a salt.
Write the number on its own, no unit after it.

As a guide, the following entries are already answered.
Using known records, supply phenotypic distance for COc1cc([C@@H]2c3cc4c(cc3[C@@H](O[C@@H]3O[C@@H]5CO[C@@H](C)O[C@H]5[C@H](O)[C@H]3O)[C@H]3COC(=O)[C@H]23)OCO4)cc(OC)c1O [Etoposide]
1.92

Note down phenotypic distance recorded for CCC1=C[C@@H]2CN(C1)Cc1c([nH]c3ccccc13)[C@@](C(=O)OC)(c1cc3c(cc1OC)N(C)[C@H]1[C@@](O)(C(=O)OC)[C@H](OC(C)=O)[C@]4(CC)C=CCN5CC[C@]31[C@@H]54)C2 [Vinorelbine Tartrate]
3.13

Provide measured phenotypic distance value, entry: CNc1ccc2oc(C[C@H]3O[C@@]4(CC[C@H]3C)O[C@H]([C@H](C)C(=O)c3ccc[nH]3)[C@H](C)C[C@H]4C)nc2c1C(=O)O [Calcimycin]
5.79

Determine from records and report phenotypic distance for CC(C)C[C@H](NC(=O)[C@H](Cc1ccccc1)NC(=O)c1cnccn1)B(O)O [Bortezomib]
6

Note phenotypic distance for the compound shown: Oc1ccc(OCc2ccccc2)cc1 [Monobenzone]
1.07

New cases:
Report phenotypic distance, nothing else, for this compound: Clc1ccc(C(Cn2ccnc2)OCc2ccsc2Cl)c(Cl)c1 (centres undefined) [Tioconazole]
1.37

Tell me its phenotypic distance given O=c1[nH]c(=O)n([C@H]2C[C@H](O)[C@@H](CO)O2)cc1I [Idoxuridine] as the entry.
0.72

Write down phenotypic distance measured for item CN(C)C(=O)Oc1ccc[n+](C)c1 [Pyridostigmine iodide]
1.39

Please list phenotypic distance recorded for the compound CCOC(=O)OC(C)OC1=C(C(=O)Nc2ccccn2)N(C)S(=O)(=O)c2ccccc21 (centres undefined) [Ampiroxicam]
0.924

# return recorded phenotypic distance for input CC(C)CC(=O)N[C@H](C(=O)N[C@H](C(=O)N[C@@H](CC(C)C)[C@@H](O)CC(=O)N[C@@H](C)C(=O)N[C@@H](CC(C)C)[C@@H](O)CC(=O)O)C(C)C)C(C)C [Pepstatin A]
0.856

Give the reported phenotypic distance for this compound. `COc1ccc2c(c1)CC[C@@H]1[C@@H]2CC[C@]2(C)[C@@H](NCCCCCCN3C(=O)CCC3=O)CC[C@@H]12`
0.711

Assign phenotypic distance to the following record: CN[C@@H]1[C@@H](O)[C@@H](O[C@@H]2[C@@H](O)[C@H](O[C@H]3OC(CN)=CC[C@H]3N)[C@@H](N)C[C@H]2N)OC[C@]1(C)O [Sisomicin sulfate]
0.793

Read off the recorded phenotypic distance for COc1cc(OC)c(C(=O)CCCN2CCCC2)c(OC)c1 [Buflomedil hydrochloride]
1.05

Complete the entry with phenotypic distance for O=C1CC[C@@H](C(=O)N2CSC[C@H]2C(=O)O)N1 [Pidotimod]
0.629
